For each entry below, report its MIC value.
Tested on: E. coli mL308 225
measurement_description: In Vitro Anti-Bacterial Activity Assay (MIC), gram negative
Type: cell-based
study_conditions: Escherichia coli, ML308225, 18 h, gram negative bacteria; read-out: Antibiotic Activity Gram − (MIC)

Look over these answered cases.
In plain terms, CN(C)c1cc(-c2ccc(CN3CCN(c4ccccc4F)CC3)o2)c(O)c2c1C[C@H]1C[C@H]3[C@H](N(C)C)C(O)=C(C(N)=O)C(=O)[C@@]3(O)C(O)=C1C2=O has a documented MIC of > 4 µg/mL

In plain terms, CN(C)c1cc(NCc2cc(F)cc(F)c2)c(O)c2c1C[C@H]1C[C@H]3[C@H](N(C)C)C(O)=C(C(N)=O)C(=O)[C@@]3(O)C(O)=C1C2=O has a documented MIC of > 4 µg/mL

In plain terms, CC(=O)c1cc(CNCC(C)(C)C)c(O)c2c1C[C@H]1C[C@H]3[C@H](N(C)C)C(O)=C(C(N)=O)C(=O)[C@@]3(O)C(O)=C1C2=O has a documented MIC of > 4 µg/mL

In plain terms, CN(C)c1cc(CNC2CCCC2)c(O)c2c1C[C@H]1C[C@H]3[C@H](N(C)C)C(O)=C(C(N)=O)C(=O)[C@@]3(O)C(O)=C1C2=O has a documented MIC of > 4 µg/mL

In plain terms, CN(CCCC(F)(F)F)Cc1cc(N(C)C)c2c(c1O)C(=O)C1=C(O)[C@]3(O)C(=O)C(C(N)=O)=C(O)[C@@H](N(C)C)[C@@H]3C[C@@H]1C2 has a documented MIC of < 4 µg/mL

In plain terms, C[C@H]1c2ccc(N(C)C3CCN(C)CC3)c(O)c2C(=O)C2=C(O)[C@]3(O)C(=O)C(C(N)=O)=C(O)[C@@H](N(C)C)[C@@H]3[C@@H](O)[C@@H]21 has a documented MIC of > 4 µg/mL

In plain terms, CN(C)[C@@H]1C(O)=C(C(N)=O)C(=O)[C@@]2(O)C(O)=C3C(=O)c4c(O)ccc(-c5ccc(NC(=O)OCCF)cc5)c4C[C@H]3C[C@@H]12 has a documented MIC of > 4 µg/mL

In plain terms, Cc1cc(-c2ccccn2)c2c(c1O)C(=O)C1=C(O)[C@]3(O)C(=O)C(C(N)=O)=C(O)[C@@H](N(C)C)[C@@H]3C[C@@H]1C2 has a documented MIC of > 4 µg/mL

In plain terms, CCc1cc(-c2ccc(N(C)C)cc2)c2c(c1O)C(=O)C1=C(O)[C@]3(O)C(=O)C(C(N)=O)=C(O)[C@@H](N(C)C)[C@@H]3C[C@@H]1C2 has a documented MIC of < 4 µg/mL

In plain terms, CN(C)[C@@H]1C(O)=C(C(N)=O)C(=O)[C@@]2(O)C(O)=C3C(=O)c4c(O)ccc(S(=O)(=O)O)c4C[C@H]3C[C@@H]12 has a documented MIC of > 4 µg/mL

Hi there! I need MIC for each item below, if you can.
1. COC1C(C(N)=O)=C(O)[C@@H](N(C)C)[C@@H]2[C@@H](O)[C@H]3C(=C(O)[C@]12O)C(=O)c1c(O)cccc1[C@@H]3C (some centres unmarked)
2. CCCCC#Cc1cc(N(C)C)c2c(c1O)C(=O)C1=C(O)[C@]3(O)C(=O)C(C(N)=O)=C(O)[C@@H](N(C)C)[C@@H]3C[C@@H]1C2
3. C[C@H]1c2c(CN)ccc(O)c2C(=O)C2=C(O)[C@]3(O)C(=O)C(C(N)=O)=C(O)[C@@H](N(C)C)[C@@H]3[C@@H](O)[C@@H]21
4. CN(C)C(=O)c1ccc(O)c2c1C[C@H]1C[C@H]3[C@H](N(C)C)C(O)=C(C(N)=O)C(=O)[C@@]3(O)C(O)=C1C2=O
5. CN(C)c1cc(NCc2cc[nH]n2)c(O)c2c1C[C@H]1C[C@H]3[C@H](N(C)C)C(O)=C(C(N)=O)C(=O)[C@@]3(O)C(O)=C1C2=O
6. CC1C(C(=O)[C@@H]2CC(=O)C(C(N)=O)=C(O)[C@H]2N(C)C)=C(C(=O)NCC(C)(C)C)C(=O)c2c(O)cccc21 (some centres unmarked)
7. CC#Cc1cc(C#CC)c2c(c1O)C(=O)C1=C(O)[C@]3(O)C(=O)C(C(N)=O)=C(O)[C@@H](N(C)C)[C@@H]3C[C@@H]1C2

Result:
1: > 4 µg/mL; 2: < 4 µg/mL; 3: > 4 µg/mL; 4: > 4 µg/mL; 5: > 4 µg/mL; 6: > 4 µg/mL; 7: > 4 µg/mL

Hi there! I need MIC for each item below, if you can.
1. CN(C)c1cc(NCc2ccc(OC(F)(F)F)cc2)c(O)c2c1C[C@H]1C[C@H]3[C@H](N(C)C)C(O)=C(C(N)=O)C(=O)[C@@]3(O)C(O)=C1C2=O
2. CN(C)CC(=O)NCc1ccc(-c2ccc(O)c3c2C[C@H]2C[C@H]4[C@H](N(C)C)C(O)=C(C(N)=O)C(=O)[C@@]4(O)C(O)=C2C3=O)cc1
3. CN(C)c1cc(CNCc2ccc(C#N)cc2)c(O)c2c1C[C@H]1C[C@H]3[C@H](N(C)C)C(O)=C(C(N)=O)C(=O)[C@@]3(O)C(O)=C1C2=O
4. CC(CF)Nc1ccc(-c2ccc(O)c3c2C[C@H]2C[C@H]4[C@H](N(C)C)C(O)=C(C(N)=O)C(=O)[C@@]4(O)C(O)=C2C3=O)cc1 (some centres unmarked)
5. CN(C)[C@@H]1C(O)=C(C(N)=O)C(=O)[C@@]2(O)C(O)=C3C(=O)c4c(O)ccc(-c5cccnc5)c4C[C@H]3C[C@@H]12
6. C/C(=N/OCC(C)C)c1ccc(O)c2c1C[C@H]1C[C@H]3[C@H](N(C)C)C(O)=C(C(N)=O)C(=O)[C@@]3(O)C(O)=C1C2=O

Result:
["> 4 µg/mL", "> 4 µg/mL", "> 4 µg/mL", "> 4 µg/mL", "< 4 µg/mL", "< 4 µg/mL"]
